# Tested on: UAG receptor on INS-1E pancreatic β-cells
# protocol.description: [125I-Tyr4]-UAG competition binding, INS-1E membranes
# Design: species or system rat
# cond: INS-1E membranes; mean±S.E.M. of three experiments
No end group written: not given here.
value.type: pIC50
For clarity, pIC50 is expressed as the negative log10 of concentration in mol/L.

Task: Entry SPEHQRVQ [UAG (6-13), Ser-Pro-Glu-His-Gln-Arg-val-Gln] needs its pIC50 filled in; supply it.
Output: 8.62

This collection of values is drawn from patent US20100168033A1.
